# Tested on: Cryptococcus neoformans
# method: Antifungal activity against Cryptococcus neoformans after 72 to 96 hr by two-fold serial dilution method
# Type: functional
attribute.measured: MIC (µg/mL)
Answers are plain numbers, in µg/mL.

Record excerpt, results attached:
COc1ccc(C2CC3(SC(NC(C)=O)=NN3C(C)=O)C(C)C(c3ccc(OC)cc3)N2C(C)=O)cc1 (stereo not given): 6.25
C[C@@H]1[C@H](O)[C@@H](C)/C=C/C=C/C=C/C=C/C=C/C=C/C=C/[C@H](O[C@@H]2O[C@H](C)[C@@H](O)[C@H](N)[C@@H]2O)C[C@@H]2O[C@](O)(C[C@@H](O)C[C@@H](O)[C@H](O)CC[C@@H](O)C[C@@H](O)CC(=O)O[C@H]1C)C[C@H](O)[C@H]2C(=O)O: 25
CC(=O)NC1=NN(C(C)=O)C2(CC(c3ccc(Cl)cc3)N(C(C)=O)C(c3ccc(Cl)cc3)C2C)S1 (stereo not given): 12.5

Please look at the items below and tell me MIC for each one, in order.
1. COc1ccc(C2CC3(CC(c4ccc(OC)cc4)N2C(C)=O)SC(NC(C)=O)=NN3C(C)=O)cc1 (stereo not given)
2. CC(=O)NC1=NN(C(C)=O)C2(CC(c3ccc(Cl)cc3)N(C(C)=O)C(c3ccc(Cl)cc3)C2)S1 (stereo not given)

1. 12.5
2. 25

The reported numbers originate from ChEMBL document CHEMBL3046555.
